- measurement.target: Pdr3 (UniProt P33200)
- Sequence: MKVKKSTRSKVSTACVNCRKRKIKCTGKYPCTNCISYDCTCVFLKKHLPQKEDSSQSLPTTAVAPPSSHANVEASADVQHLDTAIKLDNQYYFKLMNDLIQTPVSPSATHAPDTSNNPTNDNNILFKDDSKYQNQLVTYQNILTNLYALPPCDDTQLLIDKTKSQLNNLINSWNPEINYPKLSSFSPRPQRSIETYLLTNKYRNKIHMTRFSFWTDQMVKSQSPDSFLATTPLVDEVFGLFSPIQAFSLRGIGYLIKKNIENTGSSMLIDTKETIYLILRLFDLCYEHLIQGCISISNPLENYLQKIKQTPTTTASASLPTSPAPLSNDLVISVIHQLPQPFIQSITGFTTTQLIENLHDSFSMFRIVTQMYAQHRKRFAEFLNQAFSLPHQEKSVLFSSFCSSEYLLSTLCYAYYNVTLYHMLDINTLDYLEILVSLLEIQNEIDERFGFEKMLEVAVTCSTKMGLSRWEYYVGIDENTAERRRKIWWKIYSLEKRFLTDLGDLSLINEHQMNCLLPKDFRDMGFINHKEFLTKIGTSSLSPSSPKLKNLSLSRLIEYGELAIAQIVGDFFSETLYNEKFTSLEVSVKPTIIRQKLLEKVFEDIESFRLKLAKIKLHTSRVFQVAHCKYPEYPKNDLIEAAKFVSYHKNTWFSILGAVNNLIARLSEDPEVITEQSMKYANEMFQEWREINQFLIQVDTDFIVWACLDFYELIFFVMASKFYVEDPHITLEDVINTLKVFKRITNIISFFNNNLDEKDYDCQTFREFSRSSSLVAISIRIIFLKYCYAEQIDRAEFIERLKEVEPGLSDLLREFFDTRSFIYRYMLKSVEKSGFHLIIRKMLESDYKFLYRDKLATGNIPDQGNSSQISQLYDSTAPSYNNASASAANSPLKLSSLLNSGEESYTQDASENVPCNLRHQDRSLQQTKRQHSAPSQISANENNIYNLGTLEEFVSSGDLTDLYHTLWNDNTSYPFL
- experiment.notes: PBM E-score (8-mer binding enrichment) (E-score (-0.5 to 0.5)); higher = stronger / more preferred TF binding
- test.parameters: protein concentration: 200 nM; construct: GST-full length
Whole data set: some 33,000 sequences, median “E-score (-0.5 to 0.5)” near -0.035, cut for the highest 2% near 0.35. The entries come from a sample that favours the highest values as a whole.
recorded.metric: PBM E-score
Could you respond with only the numeric value?

> print(dat)
   query.sequence  reported
1        ATCCGGAG     0.433
2        ACGGATAG     0.216
3        CGGACCCG     0.392

Looking up "GGGGATAA" , I found its PBM E-score recorded as 0.0548

Looking up "GCGGATAA" , I found its PBM E-score recorded as 0.342

Looking up "ACAACGGA" , I found its PBM E-score recorded as 0.375

Looking up "TCAACGGA" , I found its PBM E-score recorded as 0.359

Looking up "GCAACGTA" , I found its PBM E-score recorded as -0.192

Looking up "ATCTGGTC" , I found its PBM E-score recorded as -0.051

Looking up "CCGGATAC" , I found its PBM E-score recorded as 0.351

Looking up "AGAGAAGG" , I found its PBM E-score recorded as -0.0862

Looking up "CCGGATAA" , I found its PBM E-score recorded as 0.396

Looking up "ACGGATAA" , I found its PBM E-score recorded as 0.375

Looking up "TGGGATAA" , I found its PBM E-score recorded as -0.102

Looking up "CAATCATG" , I found its PBM E-score recorded as -0.189

Looking up "CGGGATAA" , I found its PBM E-score recorded as 0.408

Looking up "ACAACGGG" , I found its PBM E-score recorded as 0.221

Looking up "TCAACGAA" , I found its PBM E-score recorded as 0.0322

Looking up "CGCGTCCG" , I found its PBM E-score recorded as 0.272

Looking up "AAACCATT" , I found its PBM E-score recorded as -0.226

Looking up "ACGGATTA" , I found its PBM E-score recorded as 0.217

Looking up "GCGGATTA" , I found its PBM E-score recorded as 0.204
